Test system: Hepatitis C virus
procedure.summary: Antiviral activity against Hepatitis C virus subtype 1b infected in human HuH7 cells
Type: functional, organism-based, Hepacivirus hominis
measurement.conditions: genotype 1b, Huh-7
pEC50: −log10 of the molar value.
parameter.measured: pEC50

[
  {
    "line.notation": "Nc1nc(N)c2c(-c3ccco3)cn([C@@H]3O[C@H](CO)[C@@H](O)[C@H]3O)c2n1",
    "parameter.measured": "pEC50",
    "bound.operator": "=",
    "numeric.result": 4.90
  },
  {
    "line.notation": "C#Cc1cn([C@@H]2O[C@H](CO)[C@@H](O)[C@H]2O)c2nc(N)nc(OC)c12",
    "parameter.measured": "pEC50",
    "bound.operator": "<",
    "numeric.result": 4.36
  },
  {
    "line.notation": "Cc1ncnc2c1c(-c1cccs1)cn2[C@@H]1O[C@H](CO)[C@@H](O)[C@H]1O",
    "parameter.measured": "pEC50",
    "bound.operator": "=",
    "numeric.result": 5.18
  },
  {
    "line.notation": "CSc1ncnc2c1c(-c1cc3ccccc3o1)cn2[C@@H]1O[C@H](CO)[C@@H](O)[C@H]1O",
    "parameter.measured": "pEC50",
    "bound.operator": "=",
    "numeric.result": 5.10
  },
  {
    "line.notation": "O=c1[nH]cnc2c1c(-c1ccsc1)cn2[C@@H]1O[C@H](CO)[C@@H](O)[C@H]1O",
    "parameter.measured": "pEC50",
    "bound.operator": "=",
    "numeric.result": 4.84
  },
  {
    "line.notation": "CSc1ncnc2c1c(-c1cccs1)cn2[C@@H]1O[C@H](CO)[C@@H](O)[C@H]1O",
    "parameter.measured": "pEC50",
    "bound.operator": "=",
    "numeric.result": 5.27
  },
  {
    "line.notation": "Cc1nc(N)c2c(-c3ccccc3)cn([C@@H]3O[C@H](CO)[C@@H](O)[C@H]3O)c2n1",
    "parameter.measured": "pEC50",
    "bound.operator": "<",
    "numeric.result": 4.36
  },
  {
    "line.notation": "Nc1nc2c(c(-c3cc4ccccc4o3)cn2[C@@H]2O[C@H](CO)[C@@H](O)[C@H]2O)c(=O)[nH]1",
    "parameter.measured": "pEC50",
    "bound.operator": "<",
    "numeric.result": 4.36
  },
  {
    "line.notation": "Nc1nc2c(c(-c3ccccc3)cn2[C@@H]2O[C@H](CO)[C@@H](O)[C@H]2O)c(=O)[nH]1",
    "parameter.measured": "pEC50",
    "bound.operator": "<",
    "numeric.result": 4.36
  },
  {
    "line.notation": "Nc1nc(N)c2c(-c3cc4ccccc4o3)cn([C@@H]3O[C@H](CO)[C@@H](O)[C@H]3O)c2n1",
    "parameter.measured": "pEC50",
    "bound.operator": "=",
    "numeric.result": 5.25
  },
  {
    "line.notation": "COc1nc(N)nc2c1c(-c1ccoc1)cn2[C@@H]1O[C@H](CO)[C@@H](O)[C@H]1O",
    "parameter.measured": "pEC50",
    "bound.operator": "=",
    "numeric.result": 4.70
  },
  {
    "line.notation": "Cc1nc(N)c2c(I)cn([C@@H]3O[C@H](CO)[C@@H](O)[C@H]3O)c2n1",
    "parameter.measured": "pEC50",
    "bound.operator": "=",
    "numeric.result": 5.61
  },
  {
    "line.notation": "O=c1[nH]cnc2c1c(-c1ccccc1)cn2[C@@H]1O[C@H](CO)[C@@H](O)[C@H]1O",
    "parameter.measured": "pEC50",
    "bound.operator": "<",
    "numeric.result": 4.36
  },
  {
    "line.notation": "Nc1ncnc2c1c(-c1ccco1)cn2[C@@H]1O[C@H](CO)[C@@H](O)[C@H]1O",
    "parameter.measured": "pEC50",
    "bound.operator": "<",
    "numeric.result": 4.36
  }
]
